Test Name: HepG2 cell viability effects, profiling panel, calcein-AM fluorescence, 48 h, basal (AID 1164); further: test concentration not given here
Setup Conditions: higher = more signal
Property: z-score; scope: individual compounds
Number only, please.

See these solved cases before continuing.
COCCOC(=O)N1C(=O)[C@@]2(c3cc(C#CCNC(N)=O)ccc31)[C@H](c1ccc(O)cc1)N1[C@H](c3ccccc3)[C@H](c3ccccc3)OC(=O)[C@H]1[C@@H]2C(=O)N1CCCCCCC1 ... -0.49
CCCC[C@@H]1C[C@H]1[C@@H](NS(=O)(=O)c1cccc2cccnc12)c1ccc(-c2ccccc2)cc1 ... -0.0369
C#CCCCON=C1C[C@@H](O)[C@@H](O)[C@@H]2[C@@H]3C(=O)N(c4cccc(Oc5ccccc5)c4)C(=O)[C@@H]3CC[C@@H]12 ... -1.57
[N-]=[N+]=NCc1ccccc1[C@@H]1OC(c2ccc(OCCCO)cc2)=N[C@]1(Cc1ccccc1)C(=O)N1CCOCC1 ... 1.45
COc1ccc(CCNC(=O)[C@@H]2c3ccccc3C(=O)N(c3ccc(C)cn3)[C@H]2c2ccc(CO)cc2)cc1 ... -0.513
Cc1ccc(F)cc1S(=O)(=O)N[C@@H]1CCN(Cc2ccc(CC(C)C)cc2)C1 ... -1.8

Now let's try a different one.
Suppose we examine the compound NCCCCCNC(=O)[C@@H]1C[C@@H]2C(=O)N3CCC[C@H]3C(=O)N2[C@@H]1c1cccc(OCCO)c1 ; what z-score value has been reported?
-0.168

###

Test Name: E. coli acrAB mutant growth effects, primary screen, E. coli filamentation inducers, strain DRC39, OD650, 24 h (AID 1178);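 further: growth measured as culture turbidity by optical density at 650 nm; test concentration not given here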
Setup Conditions: higher = more signal, called active from +8 up or from −8 down
I would appreciate it if you labelled entries t when z-score is -0.2 or higher, otherwise f.

Answered cases to consult:
C#CCCCON=C1C[C@@H](O)[C@@H](O)[C@@H]2[C@@H]3C(=O)N(c4cccc(Oc5ccccc5)c4)C(=O)[C@@H]3CC[C@@H]12 ... t
CC(C)C[C@@H]1NC(=O)[C@H]2C[C@@H](C(=O)O)[C@@H](c3ccc(O)cc3)N2C1=O ... t
COCCCNC(=O)[C@]1(CCC(=O)OC(C)(C)C)N=C(c2ccc(OCCCO)cc2)O[C@@H]1c1ccccc1N=[N+]=[N-] ... t
CC(CCN1CCc2nc(-c3ccccc3)c(-c3ccccc3)cc2C1)=NO[C@@H](C)c1cn([C@H](CO)Cc2ccccc2)nn1 ... f
CCOC(=O)C1=CCC(c2cc3ccccc3[nH]2)NC1 (configuration not stated) ... f
O=C1[C@H]2[C@H]3[C@H](O)[C@H](O)CC(=NOCc4ccccc4)[C@H]3CC[C@H]2C(=O)N1C[C@@H]1CCCO1 ... f

Check the entry O=C1[C@H]2[C@H]3[C@H](O)[C@H](O)CC(=NO[C@@H]4O[C@H](CO)[C@@H](O)[C@H](O)[C@H]4O)[C@@H]3CC[C@H]2C(=O)N1c1ccc(F)cc1F : does z-score equal or exceed -0.2?
t

###

Test Name: basal RPMI8226 viability, no added stimulus, profiling panel, cell-based, calcein-AM fluorescence, 48 h, PK04 Diversity Set (AID 1166);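 further: cells grown under basal conditions without added stimulus; test concentration not given here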
Setup Conditions: RPMI8226 myeloma viability, higher = more signal
Readout Name: z-score
A bare number is all that is needed in reply.

Solved entries (count: 6):
CCc1cc2c(nc1CC)CCN(CCC(C)=NOC(C)CN1CCCc3nc(C)c(C)cc31)C2 (stereo not drawn) ... -0.305
CO[C@H]1COC(=O)[C@H](C)NC(=O)[C@@H](C)COC(=O)CC=C[C@@H]1C ... 0.693
COC(=O)[C@@]1(Cc2ccc(OC)cc2)[C@H]2c3cc(C(=O)N4CCCC4)n(Cc4cc(F)c(F)c(F)c4)c3C[C@H]2CN1C(=O)c1ccccc1 ... -3.11
CC(=O)OC[C@H]1O[C@H](C#CCCCc2ccccc2)C=C[C@@H]1OC(C)=O ... -3.61
CC(=O)OC[C@H]1O[C@H](CCON=C[C@@H](C)[C@H](OCc2ccccc2)C(C)C)C=C[C@@H]1OC(C)=O ... -0.5
CC(C)=NOCc1ccc(-c2cc(-c3ccccc3)no2)cc1 ... -1.14

Find the recorded z-score belonging to CC(C)NC(=O)[C@@]1(C)c2ccccc2C(=O)N(Cc2cc(F)cc(C(F)(F)F)c2)[C@H]1c1ccc(CO)cc1 and report it.
0.223

What value of z-score has been reported for the following molecule? CC(C)C[C@@H]1NC(=O)[C@H]2C[C@@H](C(=O)NCCCCCCN(C)C)[C@@H](c3cccc(OCCO)c3)N2C1=O
0.651
